EXPERIMENTAL_PROTOCOL: Human HepG2 cell viability assay in 384 well format
Type: toxicity, cell-based
Parameters: dose 125 nL, time 70.5 hour; concentration not given beside the values
MEASUREMENT_PARAMETERS: HepG2 cells, read-out: Inhibition
In this section we review reported cytotoxicity at 70.5 h values for a set of compounds.
Answer as a quantity: numeral, then unit.

{"COMPOUND": "CSc1ccc(CN(C(=O)c2cc(=O)[nH]c(=O)[nH]2)C2CC2)cc1", "cytotoxicity at 70.5 h": "6.51%"}
{"COMPOUND": "Cc1ccnc(NC(=O)C2CCN(CCCn3ccnc3)CC2)c1", "cytotoxicity at 70.5 h": "-15.3%"}
{"COMPOUND": "O=S1(=O)CCC(c2nnc(-c3cnc4onc(C5CC5)c4c3)o2)C1 (stereo not given)", "cytotoxicity at 70.5 h": "-2.78%"}

Sample CC(=O)N1CCc2c(nc(-c3ccccn3)nc2N(C)CC(O)CO)C1 (stereo not given) — what was its cytotoxicity at 70.5 h? -9.73%

May I ask what cytotoxicity at 70.5 h has been recorded for CCNC(=O)N1CCCC(C(=O)c2cccc(OC(C)C)c2)C1 (stereo not given) ? -6.88%

Quick check: cytotoxicity at 70.5 h of CC(C)Cc1noc(CN2CCC(NC(=O)c3cccs3)CC2)n1 ? -8.58%

Name the recorded cytotoxicity at 70.5 h for CC(=O)N1CCCC1c1cncc(Oc2ccc(F)cc2)n1 (stereo not given) . -3.89%

Entry CC(c1ccccc1)N(C)C(=O)CN1CCCc2cccc(F)c21 (stereo not given) has what cytotoxicity at 70.5 h? 0.621%

====

EXPERIMENTAL_PROTOCOL: Human HepG2 cell viability assay in 384 well format
Format: toxicity, cell-based
Design: dose 125 nL, time 70.5 hour; concentration not given beside the values
MEASUREMENT_PARAMETERS: HepG2 cells, read-out: Inhibition
This section presents compounds with their documented cytotoxicity at 70.5 h values.
In your response, put the unit directly after the numeric value.

Sample answers from the record:
{"COMPOUND": "Cc1ccnc(OC[C@]23COC[C@H]2CN(C(=O)c2ccnn2C)C3)n1", "cytotoxicity at 70.5 h": "-8.86%"}
{"COMPOUND": "COc1cc2nc(C)n(CC(=O)NCCCN(C)C)c(=O)c2cc1OC", "cytotoxicity at 70.5 h": "6.18%"}
{"COMPOUND": "O=C(c1ccc(F)cc1)N1CCC2(CCN(Cc3ccccn3)C2=O)C1 (centres undefined)", "cytotoxicity at 70.5 h": "-5.2%"}
{"COMPOUND": "Cc1ccc(NC(=O)N(C)C)c(C(=O)OCC(=O)NC(C)C(C)C)c1 (centres undefined)", "cytotoxicity at 70.5 h": "26.9%"}
{"COMPOUND": "Cc1nn(C)c(C)c1NC(=O)CNC(c1ccccc1)C1CCCC1 (centres undefined)", "cytotoxicity at 70.5 h": "-9.64%"}

Bench note: what cytotoxicity at 70.5 h did c1cnc(NC2COC3(CCN(Cc4cccs4)CC3)C2)nc1 (centres undefined) show? -97%

Report cytotoxicity at 70.5 h for NCc1ccnc(Oc2ccc(F)cc2)c1 please. -17%

Item Cn1nccc1C(=O)N1CCC(c2nnsc2S(C)(=O)=O)CC1 has what recorded cytotoxicity at 70.5 h? -5.74%

Query: cytotoxicity at 70.5 h; subject: CCc1c(C)[nH]c(C(C)(C)N)nc1=O -7.1%

Tell me the measured cytotoxicity at 70.5 h of COc1ccc(C(N)=O)cc1NCc1noc(-c2ccsc2)n1 , please. -10.8%

====

EXPERIMENTAL_PROTOCOL: Human HepG2 cell viability assay in 384 well format
Assay type: toxicity, cell-based
Set-up: dose 125 nL, time 70.5 hour; concentration not given beside the values
MEASUREMENT_PARAMETERS: HepG2 cells, read-out: Inhibition
READOUT: cytotoxicity at 70.5 h (%)
The figure you give is taken to be in %; do not add the unit.

{"COMPOUND": "CCN(CC)C(=O)CSc1ncc[nH]1", "cytotoxicity at 70.5 h (%)": -8.92}

What cytotoxicity at 70.5 h value was documented for this compound, CCN1CCN(c2ccc(F)cc2C(C)NCc2ccnn2C)CC1 (centres undefined) ? -1.9

Need cytotoxicity at 70.5 h, item Clc1cccc(Cl)c1-c1nnc(CNCCn2cccn2)o1 -4.1

Would you mind telling me what cytotoxicity at 70.5 h value was observed for Cc1noc(C2CCCN(C(=O)c3cc(Cl)cn3C)C2)n1 (centres undefined) ? -4.77

====

EXPERIMENTAL_PROTOCOL: Human HepG2 cell viability assay in 384 well format
Type: toxicity, cell-based
Parameters: dose 125 nL, time 70.5 hour; concentration not given beside the values
MEASUREMENT_PARAMETERS: HepG2 cells, read-out: Inhibition
READOUT: cytotoxicity at 70.5 h (%)
State just the number; it will be interpreted in %.

{"COMPOUND": "Cc1cc(C)nc(NCc2nnc3n2CCCCC3)n1", "MEASUREMENT_UNIT": "%", "cytotoxicity at 70.5 h": 13.9}
{"COMPOUND": "Cc1ncsc1CN1C[C@@H]2CCCO[C@@H]2[C@H](Nc2ccccn2)C1", "MEASUREMENT_UNIT": "%", "cytotoxicity at 70.5 h": -4.96}

Please give the measured cytotoxicity at 70.5 h for this compound: Cc1cc(C)n(CC2CCCN2C(=O)c2cnccn2)n1 (stereo not given) 14.8

What measured cytotoxicity at 70.5 h goes with CC(C)C(NCc1ccc(Cn2cncn2)cc1)c1ccc(F)cn1 (stereo not given) ? -0.795

# query: cytotoxicity at 70.5 h of entry Fc1ccc(-c2cnc(CN3CCCC3Cn3cccn3)o2)cc1 (stereo not given) -8.12

Would you mind telling me what cytotoxicity at 70.5 h value was observed for Cc1cccnc1NC(=O)C1CCN(C(C)C(=O)NC(C)(C)C)CC1 (stereo not given) ? -10.6

Please give the measured cytotoxicity at 70.5 h for this compound: Cc1cc2nc(C(C)C)cc(NCCc3cccn3C)n2n1 -8.08

Quick check: cytotoxicity at 70.5 h of CN1CCN(CC2CC2)C(=O)c2cnc(N3CCC(CO)CC3)nc21 ? -4.14

Data request, read-out cytotoxicity at 70.5 h, for CCC(CNC(=O)Nc1cnn(CC)c1)N1CCCC1 (stereo not given) -3.1

Recorded cytotoxicity at 70.5 h of CCOC[C@H]1CC[C@H]2[C@H](CCN2Cc2c(C)noc2C)O1 , please. -3.26

// returns reported cytotoxicity at 70.5 h for input Cc1cccc2c1ccn2CCC(=O)O 3.02

What value of cytotoxicity at 70.5 h has been recorded for this entry: CN1C(=O)C2(CC(=O)Nc3c2cnn3C(C)(C)C)c2ccccc21 (stereo not given) -18.7

Quick one: cytotoxicity at 70.5 h of COCCN(Cc1ccoc1)C(=O)c1c(F)cccc1Cl ? -0.424

Find the recorded cytotoxicity at 70.5 h belonging to CN(CCOc1ccccc1)C(=O)Nc1cccn(C)c1=O and report it. 20.8

Requested read-out: cytotoxicity at 70.5 h. Entry: COCCn1ccc(NC(=O)Nc2ccc(C)cc2)n1 -5.81

====

EXPERIMENTAL_PROTOCOL: Human HepG2 cell viability assay in 384 well format
Type: toxicity, cell-based
Design: dose 125 nL, time 70.5 hour; concentration not given beside the values
MEASUREMENT_PARAMETERS: HepG2 cells, read-out: Inhibition
READOUT: cytotoxicity at 70.5 h (%)
Write it as a number; the unit % goes unstated.

A selection of reference data follows.
{"COMPOUND": "CCOCC1CN(CC2CC2)Cc2cnn(C)c21 (stereo not drawn)", "cytotoxicity at 70.5 h [%]": -8.87}
{"COMPOUND": "CC(CNC(=O)c1cc(Cl)ccc1I)N1CCCC1 (stereo not drawn)", "cytotoxicity at 70.5 h [%]": -17.1}
{"COMPOUND": "CCn1cnnc1CNC(=O)N1CCN(CC(C)C)CC1", "cytotoxicity at 70.5 h [%]": -1.52}
{"COMPOUND": "Cc1[nH]nc2ncc(C(=O)N3CCN(CC(C)(C)O)CC3)cc12", "cytotoxicity at 70.5 h [%]": -0.78}
{"COMPOUND": "CC(C)NC(=O)C1(Cc2ccccc2-c2ccccc2)CCCNC1 (stereo not drawn)", "cytotoxicity at 70.5 h [%]": -1.97}

Report cytotoxicity at 70.5 h for CCN1CCCCC1C(=O)N1CCc2onc(-c3ccc(Cl)cc3)c2C1 (stereo not drawn) please. -12.9

Could you tell me which cytotoxicity at 70.5 h is on file for O=C(CC1CCCO1)NCCc1ccccc1Br (stereo not drawn) ? -2.65

Sample c1coc(CN2C[C@@H]3OCCN(CC4CCCO4)[C@@H]3C2)c1 (stereo partly drawn) — what was its cytotoxicity at 70.5 h? -11.5

====

EXPERIMENTAL_PROTOCOL: Human HepG2 cell viability assay in 384 well format
Format: toxicity, cell-based
Set-up: dose 125 nL, time 70.5 hour; concentration not given beside the values
MEASUREMENT_PARAMETERS: HepG2 cells, read-out: Inhibition
Below: a set of entries, each annotated with reported cytotoxicity at 70.5 h.
Write it as a number; the unit % goes unstated.

{"COMPOUND": "COc1cccc2c1N(Cc1noc(C3CC3)n1)CCC2", "cytotoxicity at 70.5 h (%)": 39.7}

Look up cytotoxicity at 70.5 h for this compound: Cc1nsc(N2CCN(CC(=O)NCc3cccnc3)CC2)n1 -0.83

Quick one: cytotoxicity at 70.5 h of Cc1cccc(NC(=O)C2CSc3ncc(C)c(=O)n3C2)n1 (stereo not given) ? -9.15

Fill in the blank: the reported cytotoxicity at 70.5 h of COc1cccc(C(=O)N(C)Cc2ncc(C)c(OC)c2C)c1OC is ____. -0.629

Recorded cytotoxicity at 70.5 h of Cc1cnn(CCNCC(O)c2cccc(Br)c2)c1 (stereo not given) , please. -8.97
